// provenance: paper PMC10558864

- Test system: K. pneumoniae
- Type: cell-based, Klebsiella pneumoniae
- applied_conditions: micro broth dilution, 37 °C, 24 h, MTT indicator, triplicates
Where no end group is shown, it is not given here.
property_label: Minimum inhibitory concentration; MIC, K. pneumoniae

// recorded Minimum inhibitory concentration; MIC, K. pneumoniae for PQQYPEMNTRRNW [BRGP-007] : >1.454 mM

// recorded Minimum inhibitory concentration; MIC, K. pneumoniae for KGIKGALSILFAL [BRGP-004] : >1.879 mM

// recorded Minimum inhibitory concentration; MIC, K. pneumoniae for GIKGALKSILFAL [BRGP-005] : >1.879 mM

// recorded Minimum inhibitory concentration; MIC, K. pneumoniae for FALSILGALGIKK [BRGP-006] : 1.879 mM

// recorded Minimum inhibitory concentration; MIC, K. pneumoniae for KGGAIKSLFLILA [BRGP-003] : >1.879 mM

// recorded Minimum inhibitory concentration; MIC, K. pneumoniae for AILFLSLGAIKKG [BRGP-001] : 0.117 mM

// recorded Minimum inhibitory concentration; MIC, K. pneumoniae for FLIKSLAGAKGIL [BRGP-002] : >1.879 mM

====

- Tested on: S. typhi^R
- Assay type: cell-based, Salmonella typhi
- applied_conditions: FIC(A) = MIC of antibiotic in the presence of peptide / MIC of antibiotic alone
Where no end group is shown, it is not given here.
property_label: FIC index of Chloramphenicol in combination with the peptide, S. typhi^R
# output: bare number, no unit

// recorded FIC index of Chloramphenicol in combination with the peptide, S. typhi^R for FLIKSLAGAKGIL [BRGP-002] : 1.00

// recorded FIC index of Chloramphenicol in combination with the peptide, S. typhi^R for AILFLSLGAIKKG [BRGP-001] : 0.50

// recorded FIC index of Chloramphenicol in combination with the peptide, S. typhi^R for FALSILGALGIKK [BRGP-006] : 0.50

// recorded FIC index of Chloramphenicol in combination with the peptide, S. typhi^R for KGGAIKSLFLILA [BRGP-003] : 1.00

// recorded FIC index of Chloramphenicol in combination with the peptide, S. typhi^R for KGIKGALSILFAL [BRGP-004] : 1.00

// recorded FIC index of Chloramphenicol in combination with the peptide, S. typhi^R for GIKGALKSILFAL [BRGP-005] : 1.00

====

- Tested on: S. pyogenes
- Assay type: cell-based, Streptococcus pyogenes
- applied_conditions: micro broth dilution, 37 °C, 24 h, MTT indicator, triplicates
Where no end group is shown, it is not given here.
property_label: Minimum inhibitory concentration; MIC, S. pyogenes

// recorded Minimum inhibitory concentration; MIC, S. pyogenes for KGIKGALSILFAL [BRGP-004] : >1879 µM

// recorded Minimum inhibitory concentration; MIC, S. pyogenes for FLIKSLAGAKGIL [BRGP-002] : >1879 µM

// recorded Minimum inhibitory concentration; MIC, S. pyogenes for GIKGALKSILFAL [BRGP-005] : 470 µM

// recorded Minimum inhibitory concentration; MIC, S. pyogenes for FALSILGALGIKK [BRGP-006] : 470 µM

// recorded Minimum inhibitory concentration; MIC, S. pyogenes for AILFLSLGAIKKG [BRGP-001] : >1879 µM

// recorded Minimum inhibitory concentration; MIC, S. pyogenes for KGGAIKSLFLILA [BRGP-003] : >1879 µM

// recorded Minimum inhibitory concentration; MIC, S. pyogenes for PQQYPEMNTRRNW [BRGP-007] : >1454 µM

====

- System: S. aureus
- Format: cell-based, Staphylococcus aureus
- applied_conditions: micro broth dilution, 37 °C, 24 h, MTT indicator, triplicates
Where no end group is shown, it is not given here.
For each record, write down the corresponding Minimum inhibitory concentration; MIC, S. aureus.

Bench note, S. aureus: entry PQQYPEMNTRRNW [BRGP-007] , its Minimum inhibitory concentration; MIC, S. aureus = >1454 µM

Bench note, S. aureus: entry KGIKGALSILFAL [BRGP-004] , its Minimum inhibitory concentration; MIC, S. aureus = >1879 µM

Bench note, S. aureus: entry KGGAIKSLFLILA [BRGP-003] , its Minimum inhibitory concentration; MIC, S. aureus = >1879 µM

Bench note, S. aureus: entry FALSILGALGIKK [BRGP-006] , its Minimum inhibitory concentration; MIC, S. aureus = 939 µM

Bench note, S. aureus: entry AILFLSLGAIKKG [BRGP-001] , its Minimum inhibitory concentration; MIC, S. aureus = 117 µM

Bench note, S. aureus: entry FLIKSLAGAKGIL [BRGP-002] , its Minimum inhibitory concentration; MIC, S. aureus = >1879 µM

Bench note, S. aureus: entry GIKGALKSILFAL [BRGP-005] , its Minimum inhibitory concentration; MIC, S. aureus = >1879 µM

====

- Test system: S. typhi^R
- Format: cell-based, Salmonella typhi
- applied_conditions: FIC(A) = MIC of antibiotic in the presence of peptide / MIC of antibiotic alone
Where no end group is shown, it is not given here.
property_label: FIC index of Erythromycin in combination with the peptide, S. typhi^R
# output: bare number, no unit

// recorded FIC index of Erythromycin in combination with the peptide, S. typhi^R for GIKGALKSILFAL [BRGP-005] : 0.50

// recorded FIC index of Erythromycin in combination with the peptide, S. typhi^R for KGIKGALSILFAL [BRGP-004] : 0.50

// recorded FIC index of Erythromycin in combination with the peptide, S. typhi^R for FALSILGALGIKK [BRGP-006] : 1.00

// recorded FIC index of Erythromycin in combination with the peptide, S. typhi^R for AILFLSLGAIKKG [BRGP-001] : 0.50

====

- Test system: human erythrocytes
- test_summary: Hemolytic activity
- Type: cell-based
- applied_conditions: 1% human erythrocytes in PBS pH 7.40, 37 °C, 1 h, absorbance 570 nm
Where no end group is shown, it is not given here.
For each record, write down the corresponding MHC (minimum concentration of peptide that causes hemolysis).
Supply the numeric figure in mM, leaving out any unit text.

// recorded MHC (minimum concentration of peptide that causes hemolysis) for FALSILGALGIKK [BRGP-006] : 1.503

// recorded MHC (minimum concentration of peptide that causes hemolysis) for KGGAIKSLFLILA [BRGP-003] : 1.127

// recorded MHC (minimum concentration of peptide that causes hemolysis) for GIKGALKSILFAL [BRGP-005] : 0.188

// recorded MHC (minimum concentration of peptide that causes hemolysis) for FLIKSLAGAKGIL [BRGP-002] : 1.879

// recorded MHC (minimum concentration of peptide that causes hemolysis) for PQQYPEMNTRRNW [BRGP-007] : 1.454

// recorded MHC (minimum concentration of peptide that causes hemolysis) for KGIKGALSILFAL [BRGP-004] : 1.503

// recorded MHC (minimum concentration of peptide that causes hemolysis) for AILFLSLGAIKKG [BRGP-001] : 1.127
